- Test system: HepG2
- assay.notes: cell viability relative to DMSO; higher = less toxic
- run.parameters: 72 h; 1 nM
property: cell viability (%)
Give bare numbers, in %.

Below are worked cases with known answers.
compound	cell viability (%)
C[C@@H]1C[C@H]2[C@@H]3CCC4=CC(=O)C=C[C@]4(C)[C@@]3(Cl)[C@@H](O)C[C@]2(C)[C@@]1(OC(=O)c1ccco1)C(=O)CCl [MOMETASONE FUROATE]	114
Cc1ccc(N2CCN(CC[C@H]3NC(=O)c4ccccc43)CC2)cc1C	90.2
CCCCCCOc1ccccc1C(N)=O [exalamide]	110
Nc1ncnc2c1ncn2[C@H]1O[C@@H](C(=O)N2CCN(CC(=O)Nc3cccc4c3CNC4=O)CC2)[C@H](O)[C@@H]1O	102

Give cell viability for each listed item.
1. O=C(Nc1ccccc1C(=O)NC1CCCCNC1=O)c1cc2ccccc2s1 (configuration not stated)
2. CC(C)=CCC[C@]1(C)C=Cc2c(O)c3c(c(CC=C(C)C)c2O1)O[C@]12C(=C[C@@H]4C[C@H]1C(C)(C)O[C@@]2(C/C=C(/C)C(=O)O)C4=O)C3=O
3. CC(C)C[C@@H]1NC(=O)[C@@H](C(C)C)NC(=O)[C@@H]2CCCN2C(=O)[C@@H](CC(=O)O)NC(=O)[C@@H](Cc2c[nH]c3ccccc23)NC1=O
4. OCc1ccc(-c2nn(Cc3ccccc3)c3ccccc23)o1
5. COc1cc(NC(C)CCCN)c2ncccc2c1 (configuration not stated)
6. COc1cc2nc(C3CC3)nc(N3CCN(c4ccccc4OC)CC3)c2cc1OC

Outgoing:
1: 104; 2: 97.6; 3: 95.4; 4: 104; 5: 122; 6: 102

Give cell viability for each listed item.
1. Cc1[nH]c(/C=C2\C(=O)Nc3ccc(S(=O)(=O)Cc4c(Cl)cccc4Cl)cc32)c(C)c1C(=O)N1CCC[C@@H]1CN1CCCC1
2. O=C(Nc1cc(C(F)(F)F)cc(C(F)(F)F)c1)c1cnc(Cl)nc1C(F)(F)F

Outgoing:
102
90.4

Give cell viability for each listed item.
1. O=C1NCN(c2ccccc2)C12CCN(CCCC(c1ccc(F)cc1)c1ccc(F)cc1)CC2
2. O=P(O)(NCCCl)NCCCl [palifosfamide]
3. CC(O)(P(=O)(O)O)P(=O)(O)O

Outgoing:
112
100
92.3

Give cell viability for each listed item.
1. N#Cc1ncccn1
2. Oc1cc(O)cc(/C=C/c2ccc(O)c(O)c2)c1

Outgoing:
[102, 98.8]

====

- Test system: HepG2
- assay.notes: relative viability EC50 (midpoint between 100% and the lowest measured viability); higher = less toxic
- run.parameters: 72 h
Task for the reader: assign each of the following molecules its reported relative viability EC50.

molecule	data.value
CC[C@@H]([C@H](C)O)n1ncn(-c2ccc(N3CCN(c4ccc(OC[C@@H]5CO[C@@](Cn6cncn6)(c6ccc(F)cc6F)C5)cc4)CC3)cc2)c1=O [posaconazole]	2.81 µM
N=C(Nc1ccccc1)Nc1ccccc1 [diphenylguanidine]	> 10 µM

Give relative viability EC50 for each listed item.
1. O=C(Nc1cc(C(F)(F)F)cc(C(F)(F)F)c1)c1cnc(Cl)nc1C(F)(F)F
2. COC(=O)C1=C(C)NC(C)=C([N+](=O)[O-])[C@@H]1c1ccccc1C(F)(F)F (racemic) [BAY-K-8644-(+/-)]
3. NC(=O)c1ncn([C@@H]2O[C@H](CO)[C@@H](O)[C@H]2O)n1 [ribavirin]
4. COc1ccc(CC(=O)NC(/N=C(\NC#N)Nc2cccc3ncccc23)C(C)(C)C)cc1OC (centres undefined)
5. O=C(C=Cc1ccccc1)NC(NC(=S)Nc1ccc(Cl)cc1)C(Cl)(Cl)Cl (centres undefined) [sal003]
6. C=C1/C(=C\C=C2/CCC[C@]3(C)[C@@H]([C@H](C)/C=C/[C@@H](O)C4CC4)CC[C@@H]23)C[C@@H](O)C[C@@H]1O [calcipotriol]
7. COc1ccc2cc(-c3nc(-c4ccc([S+](C)[O-])cc4)[nH]c3-c3ccncc3)ccc2c1 (centres undefined) [tie2-kinase-inhibitor]
8. CNC(=O)c1cccc(-c2ccc3c(N4CCOC[C@@H]4C)nc(N4CCOC[C@@H]4C)nc3n2)c1 [AZD2014]

Outgoing:
["> 10 µM", "> 10 µM", "> 10 µM", "> 10 µM", "3.08 µM", "> 10 µM", "> 10 µM", "0.348 µM"]

Give relative viability EC50 for each listed item.
1. Brc1c(NC2=NCCN2)ccc2nccnc12 [brimonidine]
2. COc1cc(CCc2cc(NC(=O)c3ccc(N4CC(C)NC(C)C4)cc3)n[nH]2)cc(OC)c1 (centres undefined) [AZD4547]
3. CC(C)NCC(O)c1ccc([N+](=O)[O-])cc1 (centres undefined) [nifenalol]
4. Cc1ccccc1NC(=N)Nc1ccccc1C [ditolylguanidine]

Outgoing:
1: > 10 µM; 2: 1.99 µM; 3: > 10 µM; 4: > 10 µM

====

- Test system: Vero E6
- assay.notes: cell viability relative to DMSO; higher = less toxic
- run.parameters: 72 h; 1 nM
Task for the reader: assign each of the following compounds its reported cell viability.
Answers are plain numbers, in %.

O=C(NCC(=O)N1CC[C@H](N[C@H]2CC[C@@](O)(c3ccc(-c4ncccn4)cn3)CC2)C1)c1cccc(C(F)(F)F)c1 107

Give cell viability for each listed item.
1. CN=c1nc(-c2ccccc2)n(-c2ccccc2)s1
2. CSCC[C@H](NC(=O)[C@H](CC(C)C)NC(=O)[C@@H](Cc1c[nH]c2ccccc12)NC(=O)[C@H](Cc1ccccc1)N(C)C(=O)[C@@H](Cc1c[nH]c2ccccc12)NC(=O)[C@@H](N)CCCNC(=N)N)C(N)=O

Outgoing:
[97.8, 96.2]

====

- System: Caco-2
- assay.notes: cell viability relative to DMSO; higher = less toxic
- run.parameters: 72 h; 100 nM
Task for the reader: assign each of the following compounds its reported cell viability.
Numbers only, in %.

Below are worked cases with known answers.
compound	data.value
Cc1ccccc1N1CCN(CCc2nnc3n2CCCC3)CC1	86.9
N#Cc1ncccn1	101
CNC(=O)c1ccc(C)c(-n2c(C)cc(OCc3ccc(F)cc3F)c(Br)c2=O)c1	93
CCCCCCCCCCCCCC(=O)OC(C)C [isopropyl-myristate]	110
CC(C)NCC(O)c1ccccc1Cl (stereo not given)	94.7
CCCCOC(=O)c1ccccc1Nc1cccc(C(F)(F)F)c1 [ufenamate]	94.4
Cc1noc(-c2ccc(-c3ccc(CC(=O)O)cc3)cc2)c1NC(=O)O[C@H](C)c1ccccc1	93.3
C[C@H](Nc1ncnc2nc[nH]c12)c1cc2cccc(Cl)c2c(=O)n1-c1ccccc1	91.7
CC(=C\c1ccc(Cl)cc1)/C(C)=N/O	90.4

Next:
Incoming: Quick check: cell viability of CC(O)(P(=O)(O)O)P(=O)(O)O ?
Outgoing: 103

====

- Test system: U2OS
- assay.notes: cell viability relative to DMSO; higher = less toxic
- run.parameters: 72 h; 1 nM
property: cell viability

Below are worked cases with known answers.
compound	assay.system	cell viability
CC(C)[C@@H](CN1CC[C@@](C)(c2cccc(O)c2)[C@@H](C)C1)NC(=O)[C@H]1Cc2ccc(O)cc2CN1	U2OS	96.7%
C=C1/C(=C\C=C2/CCC[C@]3(C)[C@@H]([C@H](C)/C=C/[C@H](C)C(C)(C)O)CC[C@@H]23)C[C@@H](O)C[C@@H]1O	U2OS	104%
Cc1cccc(C)c1NC(=O)CN1CCCCCC1 [pincainide]	U2OS	97.7%

Next:
Incoming: Quick check: cell viability of CNC(=O)c1ccc(C)c(-n2c(C)cc(OCc3ccc(F)cc3F)c(Br)c2=O)c1 ?
Outgoing: 101%

====

- Test system: HepG2
- assay.notes: relative viability EC50 (midpoint between 100% and the lowest measured viability); higher = less toxic
- run.parameters: 72 h
Task for the reader: assign each of the following compounds its reported relative viability EC50.

Below are worked cases with known answers.
compound	property	data.value
O=c1ccc2c(OCCCCOc3ccccc3)c3ccoc3cc2o1 [AS-77]	relative viability EC50	> 10 µM
COc1ccc2cc3[n+](cc2c1OC)CCc1cc2c(cc1-3)OCO2 [berberine]	relative viability EC50	2.23 µM
C[C@H](NC(=O)/C(C#N)=C/c1ccc(O)c(O)c1)c1ccccc1 [tyrphostin-AG-835]	relative viability EC50	> 10 µM
CCS(=O)(=O)CCn1c([N+](=O)[O-])cnc1C [tinidazole]	relative viability EC50	> 10 µM

Incoming: Quick check: relative viability EC50 of CC(C)(C)c1ccc(S(=O)(=O)Nc2ccc(Cl)cc2C(=O)c2cc[n+]([O-])cc2)cc1 [vercirnon] ?
Outgoing: > 10 µM

====

- Test system: Caco-2
- assay.notes: cell viability relative to DMSO; higher = less toxic
- run.parameters: 72 h; 1000 nM
Task for the reader: assign each of the following compounds its reported cell viability.
Numbers only, in %.

Below are worked cases with known answers.
compound	cell viability, %
COc1ccc(NS(=O)(=O)c2ccc(N)cc2)nn1 [sulfamethoxypyridazine]	101
O=C1C(Cl)=C(NCCN2CCOCC2)C(=O)c2ncccc21	68.4
CSCC[C@H](NC(=O)[C@H](CC(C)C)NC(=O)[C@@H](Cc1c[nH]c2ccccc12)NC(=O)[C@H](Cc1ccccc1)N(C)C(=O)[C@@H](Cc1c[nH]c2ccccc12)NC(=O)[C@@H](N)CCCNC(=N)N)C(N)=O [antagonist-g]	75.6
NC(=O)[C@@H]1CC[C@@H]2CN1C(=O)N2OS(=O)(=O)O [avibactam]	95.7
COc1cc2nc(C3CC3)nc(N3CCN(c4ccccc4OC)CC3)c2cc1OC [ML314]	94.8
CCN1CCC[C@H]1CNC(=O)c1c(O)c(Cl)cc(Cl)c1OC [raclopride]	84
O=C(c1ccc(/C=C/c2n[nH]c3ccccc23)cc1)N1CCNCC1 [KW-2449]	99
CCCC[C@H]1C(=O)N(c2ccccc2)N(c2ccc(O)cc2)C1=O [oxyphenbutazone]	94.9
c1ccc(-c2ccc(C(c3ccccc3)n3ccnc3)cc2)cc1 (stereo not given) [bifonazole]	94.9
COc1ccc2cc(-c3nc(-c4ccc([S+](C)[O-])cc4)[nH]c3-c3ccncc3)ccc2c1 (stereo not given) [tie2-kinase-inhibitor]	89.6

Give cell viability for each listed item.
1. CC(C)C[C@H](NC(=O)CNC(=O)c1cc(Cl)ccc1Cl)B1OC(=O)C(CC(=O)O)(CC(=O)O)O1 [ixazomib-citrate]
2. COc1ccc(CCC(=O)c2c(O)cc(O[C@@H]3O[C@H](CO)[C@@H](O)[C@H](O)[C@H]3O[C@@H]3O[C@@H](C)[C@H](O)[C@@H](O)[C@H]3O)cc2O)cc1O [Neohesperidin dihydrochalcone (Nhdc)]
3. CC(C)C[C@H](NC(=O)CNC(=O)c1cc(Cl)ccc1Cl)B1OC(=O)C(CC(=O)O)(CC(=O)O)O1 [MLN9708]
4. CNC(=O)[C@@H](NC(=O)[C@H](CC(C)C)[C@H](O)C(=O)NO)C(C)(C)C [marimastat]
5. COc1cc([C@@H]2c3cc4c(cc3[C@@H](O[C@@H]3O[C@@H]5CO[C@@H](C)O[C@H]5[C@H](O)[C@H]3O)[C@H]3COC(=O)[C@H]23)OCO4)cc(OC)c1O [etoposide]

Outgoing:
[6.1, 94.2, 5.1, 99.9, 97.7]
